# assay method text: OH radical scavenging ability test (ABTS scavenging assay, Fenton reaction)
# stated conditions: ABTS competition, OD at 405 nm, 45 minutes at room temperature; read-out: IC50 (μM), OH radical scavenging ability
Quick list: IC50 per entry.
Could you give me the number in µM? Just the number is fine.

*Q* Recorded IC50 for OCCCCCCCCCCCCCCCCCCc1cc(O)ccc1O [Synthesis Example E-(32), 2-(18-hydroxyoctadecyl)benzene-1,4-diol] , please?
*A* 6

*Q* Recorded IC50 for OCCCCCCCCCCCCc1cc(O)ccc1O [Synthesis Example E-(31), 2-(12-hydroxydodecyl)benzene-1,4-diol] , please?
*A* 6

*Q* Recorded IC50 for COc1cc(OC)c(OC)cc1CCCCCCCCCCCCO [Synthesis Example B-(14), 12-(2,4,5-trimethoxyphenyl)dodecan-1-ol] , please?
*A* 720

*Q* Recorded IC50 for OCCCCCCCCCCCCCCCc1cc(O)ccc1O [Synthesis Example E-(34), 2-(15-hydroxypentadecyl)benzene-1,4-diol] , please?
*A* 6

*Q* Recorded IC50 for COc1cc(OC)c(OC)cc1CCCCCCCCCCCCCCCCCCO [Synthesis Example B-(17)] , please?
*A* 720

*Q* Recorded IC50 for Cc1c(C)c2c(c(C)c1O)CCC(C)(C(=O)O)O2 (stereo not drawn) [Trolox ®, reference compound] , please?
*A* 600
